As shown below, each of these binders has a reported Kd value.
- system_name: RSV postfusion F (postF), F ΔFP (Respiratory Syncytial Virus, UniProt P03420 26-513)
- test_details: BLI, IgG on anti-human IgG sensor, 100 nM antigen, 1:1 fit
Kindly provide the numeric value in nM only, without the unit symbol.

**Q:** Tell us which Kd value is on record for ADI-41468 (antibody, V domains shown, also called Ab 752; Antibody Number 752) VH: QVQLQQWGAGPLKSSETLSLTCEVYGGPFSGYSWSWIRQPPGKGLEWIGEINHSGSTNYNPSLKSRVSFSVDTSKNQFSLKLSSVTAADTAVYYCARGAGFCTSTSCPPGLYYYYGMDVWGHGTTVTVSS VL: SYELTQPLSVSVALGQTARITCGGNNIESKNVHWYQQMPGLAPVMVIYRDTNRPSGIPERFSGSNSGNTATLTISRAQAGDEADYYCQVWDSGTVIFGGGTKLTVL
**A:** 0.344

More entries:
**Q:** Let me know recorded Kd for ADI-41492 (antibody, V domains shown) VH: QVQLVQSGAEVRKPGSSVKVSCKASGGTFNSFVISWVRQAPGQGLEWMGRIIPILATVDYAQKFQGRVTITADKSTTTAYMELSGLTSEDTAVYYCARDPPRWDTTMADYYYQGMDVWGQGTTVTVSS VL: DIRVTQSPASLSAFVGDRVTISCRASQSIGSFLNWYQQKPGKAPKLLIYAASSLQSGVPSRFSGSGSGTDFTLAISSLQPEDFATYYCQQSYRSTPTFGGGTKVEIK , thanks.
**A:** 54.8

**Q:** Return Kd for the following binder: ADI-41503 (antibody, V domains shown) VH: EVQLLESGGGLVQPGGSLRLSCAASGFTFSDFPLSWVRQAPGKGLVWVSAISSSGGDTYYADSVKGRFTISRDSSKNALYLQMNSLRAEDTAVYYCAKGQELLRPYYYGMDVWGQGTTVTVSS VL: QSALIQPASVSGSPGQSITISCTGTSSDVGGYNFVSWYQQHPGKAPKLMIFEVSNRPSGVSHRFSGSKSGNTASLTISGLQAEDEADYYCSSCTSRFTYVFGTGTKLTVL
**A:** 0.493

**Q:** Given ADI-41545 (antibody, V domains shown, also called Ab 817; Antibody Number 817) VH: QVQLVESGPGLVKPSETLSLTCTVSGGSISRYYWSWIRQSPGKGLEWIGYIYHSVITNYNPSLKSRVTISIDMSKNQFSLKLSSVTAADTAVYYCASRPLINGYGPDNYFDYWGQGTLVTVSS VL: SYVLTQPPSVSVAPGQTARITCGGNNIGSKSVHWYQRKPGQAPVLVVYDDSDRPSGIPERFSGSNSGNTATLTIIRVEAGDEADYYCQVWDNSSDHPVFGGGTKLTVL , respond with its Kd.
**A:** 0.825

**Q:** Check the records and state Kd for ADI-41499 (antibody, V domains shown) VH: EVQLVESGGVVVQPGGSLRLSCAASGFSFDDYTMYWVRQAPEKGLEWISLISWNGGVTYYPDSVKGRFTVSRDNNKNSLYLQMDSLRPEDSAFYYCAKESLESSGHFLDYWGQGTLVTVSS VL: QPVLTQSRSVSGSPGQSVTISCIGTNSDVGGYHYVSWFQHHPGKAPKLMIYDVSRRPSGVPARFSGSKSGNTASLSISGLRAEDEADYYCCSFAGTYTPYVFGTGTKLTVL
**A:** 0.297
